Experiment: in vivo
Set-up: species or system Sprague Dawley rats
Conditions: male, Sprague Dawley, rat, po, 10 mg/kg, greater exposure (AUCall) of spleen tissue compared to plasma
propertyName: Kp
Enter the number alone.

Query string: Please give the measured Kp for this compound: CC(/C=N/NC(=N)N)=N\NC(=N)N [MGBG]
Result string: 9.3

* * *

Assay: in vivo
Set-up: species or system Sprague Dawley rats
Details: male, Sprague Dawley, rat, po, 10 mg/kg, greater exposure (Cmax) of spleen tissue compared to plasma
propertyName: Kp
Keep the answer to the number alone.

Query string: Kp for CC(/C=N/NC(=N)N)=N\NC(=N)N ?
Result string: 4

* * *

Assay: in vivo
Parameters: species or system Sprague Dawley rats
Details: male, Sprague Dawley, rat, po, 10 mg/kg, greater exposure (AUCall) of liver tissue compared to plasma
Procedure: Eighteen male Sprague Dawley rats (Charles River) weighing 217-263 g and aged 8-9 weeks were administered the test article, MGBG as either a single bolus intravenous dose of 1 mg/kg (Group 1) or as a single oral gavage dose of 10 mg/kg. […] Analysis was performed by LC/MS/MS. […] All samples reported as BLQ (Below the Limit of Quantitation, in plasma 2.50 ng/mL) were changed to 0.00 ng/mL for the purpose of analysis. […]
propertyName: Kp
Respond with the number and no other words.

Query string: Give the measured Kp of CC(/C=N/NC(=N)N)=N\NC(=N)N .
Result string: 160

* * *

Assay: in vivo
Design: species or system Sprague Dawley rats
Conditions: male, Sprague Dawley, rat, po, 10 mg/kg, greater exposure (Cmax) of liver tissue compared to plasma
propertyName: Kp
Just the number, please, no unit attached.

Query string: Could you share which Kp value was measured for CC(/C=N/NC(=N)N)=N\NC(=N)N ?
Result string: 120

Every entry's value here was drawn from patent US10085955B2.
